EXPERIMENTAL SYSTEM: T1, P2-AA-12HGe-E
T1 chain: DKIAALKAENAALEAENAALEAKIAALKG
TEST NAME: two-hybrid library CCmax;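 further: natural log of median RNA to DNA barcode read ratio; higher means stronger binding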
ASSAY CONTEXT: mean of both orientations
Provide the reported interaction score of each item.
Answers are plain numbers.

binder="DEIAALEAYNAALYAYNAALYAEIAALEG [P1-AA-12HGe-Y]" assay_metric="interaction score" assay_result=2.36
binder="DEIAALEAQNAALQAQNAALQAEIAALEG [P1-AA-12HGe-Q]" assay_metric="interaction score" assay_result=2.09
binder="DEIAALEAANAALAAANAALAAEIAALEG [P1-AA-12HGe-A]" assay_metric="interaction score" assay_result=1.62
binder="DEIAALEAKNAALKAKNAALKAEIAALEG [P1-AA-12HGe-K]" assay_metric="interaction score" assay_result=2.31
binder="DEIAALEADNAALDADNAALDAEIAALEG [P1-AA-12HGe-D]" assay_metric="interaction score" assay_result=-1.55

Take each entry in turn and give its interaction score.
1. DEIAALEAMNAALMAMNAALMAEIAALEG [P1-AA-12HGe-M]
2. DEIAALEAHNAALHAHNAALHAEIAALEG [P1-AA-12HGe-H]
3. DEIAALEARNAALRARNAALRAEIAALEG [P1-AA-12HGe-R]
4. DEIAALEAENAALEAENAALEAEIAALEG [P1-AA]
5. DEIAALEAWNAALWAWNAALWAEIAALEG [P1-AA-12HGe-W]
6. DEIAALEASNAALSASNAALSAEIAALEG [P1-AA-12HGe-S]
7. DEIAALEATNAALTATNAALTAEIAALEG [P1-AA-12HGe-T]

A:
1. 2.2
2. 2
3. 2.08
4. 0.914
5. 1.5
6. 0.07
7. 1.26
